molecular target: reuptake of noradrenaline (NA) in synaptosomes (Rattus norvegicus); construct: in synaptosomes as described in WO 97/16451 (NeuroSearch A/S); from tissue; test: In vitro inhibition of NA reuptake in synaptosomes; assay type: biochemical
Sequence (Q63380 1-617): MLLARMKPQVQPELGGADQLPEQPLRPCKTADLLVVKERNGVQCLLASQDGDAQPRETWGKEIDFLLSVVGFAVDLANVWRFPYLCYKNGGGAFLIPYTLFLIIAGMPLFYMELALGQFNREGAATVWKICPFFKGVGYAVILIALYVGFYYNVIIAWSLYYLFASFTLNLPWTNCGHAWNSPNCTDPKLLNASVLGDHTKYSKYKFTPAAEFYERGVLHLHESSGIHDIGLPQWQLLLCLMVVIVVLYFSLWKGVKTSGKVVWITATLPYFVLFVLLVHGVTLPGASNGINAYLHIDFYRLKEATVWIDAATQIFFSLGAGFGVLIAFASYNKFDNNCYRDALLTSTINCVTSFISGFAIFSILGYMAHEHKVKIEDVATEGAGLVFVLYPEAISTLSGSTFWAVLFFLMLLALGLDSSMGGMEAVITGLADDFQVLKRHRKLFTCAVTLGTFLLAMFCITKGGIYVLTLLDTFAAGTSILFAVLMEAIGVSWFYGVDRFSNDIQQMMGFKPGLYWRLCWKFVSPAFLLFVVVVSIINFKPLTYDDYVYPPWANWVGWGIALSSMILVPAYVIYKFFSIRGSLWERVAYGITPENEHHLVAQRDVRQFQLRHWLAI
Assay metric: IC50 (nM)
Report only the number, with the unit nM understood.

Ask | Respond only with IC50 recorded for C1=C(C(c2ccccc2)c2ccccc2)CCNC1 [4-Benzhydryl-1,2,3,6-tetrahydro-pyridine]
Reply | 45

###

target: reuptake of serotonine (5-HT) in synaptosomes (Rattus norvegicus); construct: in synaptosomes as described in WO 97/16451 (NeuroSearch A/S); from tissue; assay: In vitro inhibition of 5-HT reuptake in synaptosomes; format: biochemical
Assay metric: pIC50
# pIC50: negative log10 of molar concentration; output just the value

Ask | Respond only with pIC50 recorded for C1=C(C(c2ccccc2)c2ccccc2)CCNC1 [4-Benzhydryl-1,2,3,6-tetrahydro-pyridine]
Reply | 8.46

###

target: reuptake of dopamine (DA) in synaptosomes (Rattus norvegicus, UniProt P23977); construct: in synaptosomes as described in WO 97/16451 (NeuroSearch A/S); from tissue; assay: In vitro inhibition of DA reuptake in synaptosomes; type: biochemical; conditions: synaptosomes, 3H-DA; read-out: DA-uptake IC50
Sequence (P23977 whole entry): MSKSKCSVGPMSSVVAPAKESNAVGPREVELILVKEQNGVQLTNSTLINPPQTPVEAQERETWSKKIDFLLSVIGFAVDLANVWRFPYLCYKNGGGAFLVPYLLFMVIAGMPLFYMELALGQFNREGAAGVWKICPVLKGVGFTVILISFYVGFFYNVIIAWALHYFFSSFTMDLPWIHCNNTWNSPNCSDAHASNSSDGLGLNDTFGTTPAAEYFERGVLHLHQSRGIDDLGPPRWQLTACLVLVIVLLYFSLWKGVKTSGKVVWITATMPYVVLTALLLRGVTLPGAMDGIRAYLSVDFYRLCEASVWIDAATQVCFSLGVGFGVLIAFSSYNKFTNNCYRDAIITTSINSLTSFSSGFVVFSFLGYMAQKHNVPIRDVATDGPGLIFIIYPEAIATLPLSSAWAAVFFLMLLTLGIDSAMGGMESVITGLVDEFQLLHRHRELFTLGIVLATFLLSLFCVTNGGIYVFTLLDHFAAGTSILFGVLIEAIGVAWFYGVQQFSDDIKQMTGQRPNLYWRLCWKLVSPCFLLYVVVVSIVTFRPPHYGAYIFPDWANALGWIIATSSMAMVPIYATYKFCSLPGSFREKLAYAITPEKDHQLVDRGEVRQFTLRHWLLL
Assay metric: IC50 (nM)
Report only the number, with the unit nM understood.

Ask | Respond only with IC50 recorded for `CN1CC=C(C(c2ccccc2)c2ccccc2)CC1`
Reply | 580

###

biological target: reuptake of dopamine (DA) in synaptosomes (Rattus norvegicus, UniProt P23977); construct: in synaptosomes as described in WO 97/16451 (NeuroSearch A/S); from tissue; assay: In vitro inhibition of DA reuptake in synaptosomes; type: biochemical
Assay metric: pIC50
# pIC50: negative log10 of molar concentration; output just the value

Ask | Respond only with pIC50 recorded for C1=C(C(c2ccccc2)c2ccccc2)CCNC1 [4-Benzhydryl-1,2,3,6-tetrahydro-pyridine]
Reply | 7.20

###

target: reuptake of serotonine (5-HT) in synaptosomes (Rattus norvegicus, UniProt P31652); construct: in synaptosomes as described in WO 97/16451 (NeuroSearch A/S); from tissue; test: In vitro inhibition of 5-HT reuptake in synaptosomes; format: biochemical; settings: synaptosomes, 3H-5-HT; read-out: 5-HT-uptake IC50
Sequence (P31652 whole entry): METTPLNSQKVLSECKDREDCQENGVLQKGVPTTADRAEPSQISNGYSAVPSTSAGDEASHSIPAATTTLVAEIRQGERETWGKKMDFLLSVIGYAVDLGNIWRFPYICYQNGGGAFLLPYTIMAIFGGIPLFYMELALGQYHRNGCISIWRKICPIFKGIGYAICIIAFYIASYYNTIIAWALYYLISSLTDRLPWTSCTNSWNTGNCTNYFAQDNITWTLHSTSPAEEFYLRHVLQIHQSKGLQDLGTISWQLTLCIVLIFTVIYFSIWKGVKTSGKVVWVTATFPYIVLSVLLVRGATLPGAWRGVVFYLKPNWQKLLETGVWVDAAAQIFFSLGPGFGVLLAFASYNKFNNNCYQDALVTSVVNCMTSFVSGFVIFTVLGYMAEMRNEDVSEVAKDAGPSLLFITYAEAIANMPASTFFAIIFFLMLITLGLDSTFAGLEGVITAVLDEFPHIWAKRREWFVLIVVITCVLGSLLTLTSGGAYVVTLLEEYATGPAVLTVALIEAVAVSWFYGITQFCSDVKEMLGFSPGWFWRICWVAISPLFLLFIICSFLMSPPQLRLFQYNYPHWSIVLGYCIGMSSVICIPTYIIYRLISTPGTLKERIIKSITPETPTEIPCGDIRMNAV
pIC50: −log10 of the molar value.
Assay metric: pIC50

Ask | Respond only with pIC50 recorded for `CN1CC=C(C(c2ccccc2)c2ccccc2)CC1`
Reply | < 6.00
